- Test system: P. falciparum stage V gametocytes
- assay-info: microbe, parasite or virus in culture
- Set-up: BacTiter-Glo ATP luminescence viability of purified stage V gametocytes in 384-well plates, per cent inhibition versus DMSO
- measurement-parameters: Plasmodium falciparum, 48 h, read-out: % Inhibition
Can you tell me inhibition at 5 µM for the items I'm about to list?
A complete answer gives the number and then names the unit.

Requested read-out: inhibition at 5 µM. Entry: COc1ccc2c(N/N=C/c3ccccc3[N+](=O)[O-])ccnc2c1
101%

Same lookup for CC1(C)N=C(N)N=C(N)N1c1ccc2ccccc2c1 , please.
-17.5%

Same lookup for CCCNc1nc(Nc2ccccc2C)nc2ccccc12 , please.
78.9%

Same lookup for COc1ccc2c(N/N=C/c3ccc([N+](=O)[O-])cc3)ccnc2c1 , please.
91.3%

Same lookup for Cc1cc(NN=Cc2ccc(F)cc2)c2cc(C(F)(F)F)ccc2n1 , please.
-75.7%

Same lookup for c1cc(CN2CCCCC2)cc(OCCCNc2ccnc3ccccc23)c1 , please.
42%

Same lookup for CCCC(=O)c1cnc2cc(O)ccc2c1Nc1ccccc1C , please.
-12.6%

Same lookup for Cc1ccccc1Nc1nc(NCc2ccccc2)nc2ccccc12 , please.
98.9%

Same lookup for Cc1cc(N/N=C/c2cccc([N+](=O)[O-])c2)c2cc(F)ccc2n1 , please.
-21.6%

---

- assay-info: Cytotoxicity in HepG2 cells (intracellular ATP, ATPlite, 48 h)
- Format: cell-based, human
- measurement-parameters: human, HepG2 cells; IC50 per ratio column head; unit inferred; read-out: Cytotoxicity in HepG2
readout-type: IC50 at 48 h (µM)
Record the value in µM, omitting the unit from your answer.

Requested read-out: IC50 at 48 h. Entry: N=C(NCCCc1ccccc1)c1cccc(C(=N)NCCCc2ccccc2)n1
12.8

Same lookup for COc1ccc2nc3cc(Cl)ccc3c(NCCCCN3CCNCC3)c2c1 , please.
5

Same lookup for COc1ccc(CCNc2nc(NCc3ccccc3)c3cc(OC)c(OC)cc3n2)cc1OC , please.
4.58

Same lookup for CCCCN1CCN(CCCCNc2c3ccccc3nc3ccccc23)CC1 , please.
12.7

Same lookup for CC(C)(C)c1ccc(CN2CCC(CNC(=O)c3cc(-c4cccc(Cl)c4)cs3)C2)cc1 (stereo not drawn) , please.
11.3

---

- System: P. falciparum stage V gametocytes
- assay-info: Gametocytocidal ATP bioluminescence assay (single point 5 μM and 1 μM, dose-response)
- Format: cell-based, Plasmodium falciparum
- measurement-parameters: Plasmodium falciparum; ATP assay; Fig 7; read-out: IC90 against gametocytes
Can you tell me IC90 for the items I'm about to list?
Record the value in µM, omitting the unit from your answer.

Requested read-out: IC90. Entry: N=C(NCCCc1ccccc1)c1cccc(C(=N)NCCCc2ccccc2)n1
2

Same lookup for CNC(=S)NN=C(C)c1ccccn1 , please.
10

Same lookup for Cc1c(Cl)cccc1NC(=S)NN=Cc1ccccn1 , please.
2

Same lookup for COc1cccc(NC(=O)[C@H](C(C)C)n2c(=O)[nH]c3ccccc3c2=O)c1 , please.
2.5

Same lookup for Cc1[nH]c2ccccc2c1C(=O)C(C)Sc1nnc(-c2ccccc2Br)[nH]1 (stereo not drawn) , please.
2.5

Same lookup for CCC1CN2CCc3cc(OC)c(OC)cc3C2CC1CC1NCCc2cc(OC)c(OC)cc21 (stereo not drawn) , please.
2
